Molecular target: human TLR9 (Homo sapiens)
Sequence (Q9NR96 26-1032): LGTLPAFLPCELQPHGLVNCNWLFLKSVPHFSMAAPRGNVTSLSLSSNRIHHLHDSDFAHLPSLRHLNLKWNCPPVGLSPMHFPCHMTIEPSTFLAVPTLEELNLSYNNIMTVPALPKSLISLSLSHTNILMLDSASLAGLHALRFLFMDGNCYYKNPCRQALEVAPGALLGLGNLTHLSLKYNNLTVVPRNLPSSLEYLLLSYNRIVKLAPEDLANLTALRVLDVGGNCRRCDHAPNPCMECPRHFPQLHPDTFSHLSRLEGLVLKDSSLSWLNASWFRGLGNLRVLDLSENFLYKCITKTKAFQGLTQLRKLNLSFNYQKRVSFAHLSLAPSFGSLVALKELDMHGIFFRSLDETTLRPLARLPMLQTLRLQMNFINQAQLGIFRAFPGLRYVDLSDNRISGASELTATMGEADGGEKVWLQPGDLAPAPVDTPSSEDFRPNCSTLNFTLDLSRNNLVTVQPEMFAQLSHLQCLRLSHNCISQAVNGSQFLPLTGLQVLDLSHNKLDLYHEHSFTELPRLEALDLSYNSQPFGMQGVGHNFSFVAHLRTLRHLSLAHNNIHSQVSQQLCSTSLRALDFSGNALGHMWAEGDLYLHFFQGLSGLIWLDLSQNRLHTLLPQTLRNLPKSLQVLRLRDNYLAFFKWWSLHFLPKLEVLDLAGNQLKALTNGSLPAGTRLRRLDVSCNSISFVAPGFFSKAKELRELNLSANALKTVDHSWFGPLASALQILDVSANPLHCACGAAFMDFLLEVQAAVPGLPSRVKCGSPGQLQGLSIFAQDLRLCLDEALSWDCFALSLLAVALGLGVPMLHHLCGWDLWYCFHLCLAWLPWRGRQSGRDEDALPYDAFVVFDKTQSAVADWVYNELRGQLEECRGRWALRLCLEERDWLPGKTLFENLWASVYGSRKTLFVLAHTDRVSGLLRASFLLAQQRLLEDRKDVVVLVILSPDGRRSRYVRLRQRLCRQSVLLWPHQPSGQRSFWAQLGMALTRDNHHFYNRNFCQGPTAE
Experiment: HEK293-Blue-hTLR-9 cells assay (SEAP reporter, ODN2006 stimulation)
Format: cell-based
Settings: HEK293-Blue-hTLR-9 cells, ODN2006 ligand, 20 hrs incubation; read-out: TLR9 IC50
property: IC50

> print(dat)
                                   compound            subject.of.test     val
1  C[C@@H]1CN(c2ccc(C#N)n3nccc23)C[C@H](C(=O)N2CC(N)C2)O1 [Example 8]  human TLR9 (Homo sapiens)   70 µM
2  C[C@@H]1CN(c2ccc(C#N)n3nccc23)C[C@H](C(=O)NC2CC3(CNC3)C2)O1 [Example 3]  human TLR9 (Homo sapiens)   36 µM
3  C[C@@H]1CN(c2ccc(C#N)n3nccc23)C[C@H](C(=O)Nc2ccc(C(=O)N3CCNCC3)cc2)O1 [Example 42]  human TLR9 (Homo sapiens)  1.8 µM
4  C[C@@H]1CN(c2ccc(Cl)n3nccc23)C[C@H](C(=O)NC2CCN(C)CC2)O1 [Example 38]  human TLR9 (Homo sapiens)   36 µM

---

Biological target: human TLR8 (Homo sapiens)
Sequence (Q9NR97 27-1041): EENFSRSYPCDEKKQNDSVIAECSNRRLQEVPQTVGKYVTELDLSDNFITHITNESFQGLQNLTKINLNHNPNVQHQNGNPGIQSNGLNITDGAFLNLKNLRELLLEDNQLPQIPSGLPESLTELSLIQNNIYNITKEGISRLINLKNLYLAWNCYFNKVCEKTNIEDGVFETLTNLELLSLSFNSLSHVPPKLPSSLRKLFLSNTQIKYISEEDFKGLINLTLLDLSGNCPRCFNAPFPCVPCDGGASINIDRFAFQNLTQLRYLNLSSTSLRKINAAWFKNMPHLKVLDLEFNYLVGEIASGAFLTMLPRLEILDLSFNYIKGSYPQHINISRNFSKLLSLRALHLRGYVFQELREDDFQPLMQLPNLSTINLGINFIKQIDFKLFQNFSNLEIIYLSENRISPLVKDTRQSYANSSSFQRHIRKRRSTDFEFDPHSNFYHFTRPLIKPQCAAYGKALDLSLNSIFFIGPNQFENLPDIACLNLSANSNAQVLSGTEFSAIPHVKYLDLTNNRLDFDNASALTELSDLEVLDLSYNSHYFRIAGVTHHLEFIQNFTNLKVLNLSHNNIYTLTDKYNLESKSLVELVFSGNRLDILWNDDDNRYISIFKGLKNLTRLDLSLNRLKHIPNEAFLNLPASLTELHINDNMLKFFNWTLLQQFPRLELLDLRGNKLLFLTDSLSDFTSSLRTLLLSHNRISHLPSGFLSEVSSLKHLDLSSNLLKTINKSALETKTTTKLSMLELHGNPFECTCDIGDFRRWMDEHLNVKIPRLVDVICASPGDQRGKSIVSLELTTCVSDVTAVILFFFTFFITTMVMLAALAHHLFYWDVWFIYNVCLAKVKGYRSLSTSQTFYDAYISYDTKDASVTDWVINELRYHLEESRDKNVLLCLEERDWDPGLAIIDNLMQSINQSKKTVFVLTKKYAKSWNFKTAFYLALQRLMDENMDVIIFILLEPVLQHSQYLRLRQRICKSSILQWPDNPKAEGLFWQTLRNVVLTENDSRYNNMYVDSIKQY
Test: HEK293-Blue-hTLR-8 cells assay (SEAP reporter, R848 stimulation)
Assay type: cell-based
pIC50: −log10 of the molar value.
property: pIC50

> print(dat)
                                   compound  property   val
1  C[C@@H]1CN(c2ccc(C#N)n3nccc23)C[C@H](C(=O)NC2CC3CCCC(C2)N3C)O1 (stereo partly shown) [Example 35]     pIC50  7.42
